All values here come from paper PMC5439065.

biological target: CYP3A (CYP3A11) (Mus musculus, UniProt Q64459); assay: in vitro; conditions: CD-1, mouse, microsomes, pH 7.4, IC50, CYP3A (BROD), microsomes from high POPs-exposed mice; geometric mean (confidence interval); 2 μM 7-benzyloxyresorufin
Each entry below carries its reported IC50 at 7 min.

[[record]]
molecule = "O=C1C[C@@H](c2ccc(O)cc2)Oc2cc(O)cc(O)c21 [Naringenin, naringenin]"
endpoint_name = "IC50 at 7 min"
data_value = "43.1 µM"


Prompt: Query (molecule): O=c1c(O)c(-c2ccc(O)c(O)c2)oc2cc(O)cc(O)c12 [Quercetin, quercetin] ; field requested: IC50 at 7 min
Response: 35.7 µM

###

system: CYP1A; assay: In vitro inhibition of EROD (7-ethoxyresorufin O-dealkylase) activity in hepatic microsomes; conditions: CD-1, mouse, liver microsomes, pH 7.4, probe 7-ethoxyresorufin (0.005 to 4.0 µM), Ki, CYP1A (EROD), microsomes from high POPs-exposed mice; geometric mean (confidence interval)
ENDPOINT_NAME: Ki at 5 min (nM)
// units = nM; emit number, no label

Prompt: Query (molecule): O=c1c(O)c(-c2ccc(O)c(O)c2)oc2cc(O)cc(O)c12 [Quercetin, quercetin] ; field requested: Ki at 5 min
Response: 2600

###

test system: CYP1A (CYP1A1 and CYP1A2); test: In vitro inhibition of EROD (7-ethoxyresorufin O-dealkylase) activity in hepatic microsomes; details: CD-1, mouse, liver microsomes, pH 7.4, probe 7-ethoxyresorufin (1 µM), IC50, CYP1A (EROD), microsomes from low POPs-exposed mice; geometric mean (confidence interval); 1 μM 7-ethoxyresorufin
ENDPOINT_NAME: IC50 at 5 min
Express your answer as a number followed by its unit.

Prompt: Query (molecule): O=c1c(O)c(-c2ccc(O)c(O)c2)oc2cc(O)cc(O)c12 ; field requested: IC50 at 5 min
Response: 5.1 µM

###

system: CYP1A; assay: In vitro inhibition of EROD (7-ethoxyresorufin O-dealkylase) activity in hepatic microsomes; settings: CD-1, mouse, liver microsomes, pH 7.4, probe 7-ethoxyresorufin (0.005 to 4.0 µM), Ki values, EROD activity, range over the unexposed, low- and high-exposed groups
ENDPOINT_NAME: Ki at 5 min

Prompt: Query (molecule): O=c1c(O)c(-c2ccc(O)c(O)c2)oc2cc(O)cc(O)c12 ; field requested: Ki at 5 min
Response: 1700 to 2600 nM

###

target: CYP3A (CYP3A11) (Mus musculus); assay: in vitro; details: CD-1, mouse, microsomes, pH 7.4, IC50, CYP3A (BROD), microsomes from unexposed mice; geometric mean (confidence interval); 2 μM 7-benzyloxyresorufin
ENDPOINT_NAME: IC50 at 7 min

[[record]]
molecule = "O=c1c(O)c(-c2ccc(O)c(O)c2)oc2cc(O)cc(O)c12 [Quercetin, quercetin]"
measurement_target = "CYP3A (CYP3A11) (Mus musculus)"
data_value = "30.2 µM"


Please turn your attention to the following entry.
Prompt: Query (molecule): O=C1C[C@@H](c2ccc(O)cc2)Oc2cc(O)cc(O)c21 [Naringenin, naringenin] ; field requested: IC50 at 7 min
Response: 40.3 µM

###

Each entry below carries its reported Ki at 7 min.
biological target: CYP3A (CYP3A11) (Mus musculus, UniProt Q64459); experiment: in vitro; conditions: CD-1, mouse, microsomes, pH 7.4, Ki, CYP3A (BROD), microsomes from unexposed mice; geometric mean (confidence interval)
Express your answer as a number followed by its unit.

[[record]]
structure_as_smiles = "O=c1c(O)c(-c2ccc(O)c(O)c2)oc2cc(O)cc(O)c12"
data_value = "67.1 µM"


Prompt: Any idea what Ki at 7 min came out for O=C1C[C@@H](c2ccc(O)cc2)Oc2cc(O)cc(O)c21 on CYP3A (CYP3A11) (Mus musculus, UniProt Q64459)?
Response: 42.1 µM

###

tested on: CYP1A; assay: In vitro inhibition of EROD (7-ethoxyresorufin O-dealkylase) activity in hepatic microsomes; conditions: CD-1, mouse, liver microsomes, pH 7.4, probe 7-ethoxyresorufin (0.005 to 4.0 µM), Ki, CYP1A (EROD), microsomes from unexposed mice; geometric mean (confidence interval)
ENDPOINT_NAME: Ki at 5 min (µM)
// units = µM; emit number, no label

Prompt: Any idea what Ki at 5 min came out for O=c1c(O)c(-c2ccc(O)c(O)c2)oc2cc(O)cc(O)c12 on CYP1A?
Response: 1.7

###

system: CYP1A; experiment: In vitro inhibition of EROD (7-ethoxyresorufin O-dealkylase) activity in hepatic microsomes; conditions: CD-1, mouse, liver microsomes, pH 7.4, probe 7-ethoxyresorufin (0.005 to 4.0 µM), Ki, CYP1A (EROD), microsomes from low POPs-exposed mice; geometric mean (confidence interval)
ENDPOINT_NAME: Ki at 5 min (nM)
// units = nM; emit number, no label

Prompt: Query (compound): O=c1c(O)c(-c2ccc(O)c(O)c2)oc2cc(O)cc(O)c12 [Quercetin, quercetin] ; field requested: Ki at 5 min
Response: 2600

###

Molecular target: CYP3A (CYP3A11) (Mus musculus)
Test: in vitro
Conditions: CD-1, mouse, microsomes, pH 7.4, Ki, CYP3A (BROD), microsomes from high POPs-exposed mice; geometric mean (confidence interval)
Method: Liver samples were taken immediately after necropsy, frozen in ethanol and dry ice, and stored at −80°C until use. The microsomal fractions were prepared using a calcium aggregation method. Microsomal protein concentration was determined with a commercially available kit (Bio-Rad laboratories Inc., Hercules, CA, USA) according to the manufacturer's instructions. […]
ENDPOINT_NAME: Ki at 7 min

[[record]]
compound = "O=C1C[C@@H](c2ccc(O)cc2)Oc2cc(O)cc(O)c21 [Naringenin, naringenin]"
data_value = "39.3 µM"


Please turn your attention to the following entry.
Prompt: Query (compound): O=c1c(O)c(-c2ccc(O)c(O)c2)oc2cc(O)cc(O)c12 [Quercetin, quercetin] ; field requested: Ki at 7 min
Response: 75.3 µM

###

test system: CYP1A (CYP1A1 and CYP1A2); experiment: In vitro inhibition of EROD (7-ethoxyresorufin O-dealkylase) activity in hepatic microsomes; settings: CD-1, mouse, liver microsomes, pH 7.4, probe 7-ethoxyresorufin (1 µM), IC50, CYP1A (EROD), microsomes from high POPs-exposed mice; geometric mean (confidence interval); 1 μM 7-ethoxyresorufin
ENDPOINT_NAME: IC50 at 5 min (µM)
// units = µM; emit number, no label

Prompt: Any idea what IC50 at 5 min came out for O=c1c(O)c(-c2ccc(O)c(O)c2)oc2cc(O)cc(O)c12 on CYP1A (CYP1A1 and CYP1A2)?
Response: 5.8

###

Target: CYP3A (CYP3A11) (Mus musculus)
Sequence (Q64459 1-504): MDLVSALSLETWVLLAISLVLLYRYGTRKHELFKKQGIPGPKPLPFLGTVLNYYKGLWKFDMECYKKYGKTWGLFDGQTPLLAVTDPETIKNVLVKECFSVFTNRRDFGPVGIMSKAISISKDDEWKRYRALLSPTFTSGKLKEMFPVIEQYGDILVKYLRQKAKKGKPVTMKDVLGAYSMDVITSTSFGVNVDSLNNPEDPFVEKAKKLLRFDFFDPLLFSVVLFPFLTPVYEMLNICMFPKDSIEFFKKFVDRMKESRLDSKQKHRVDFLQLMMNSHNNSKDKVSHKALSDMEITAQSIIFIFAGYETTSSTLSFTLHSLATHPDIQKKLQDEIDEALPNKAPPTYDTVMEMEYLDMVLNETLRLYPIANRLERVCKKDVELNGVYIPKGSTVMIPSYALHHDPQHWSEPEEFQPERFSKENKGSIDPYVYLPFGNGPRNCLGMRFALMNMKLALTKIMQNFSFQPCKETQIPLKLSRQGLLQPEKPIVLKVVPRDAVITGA
Assay: in vitro
Conditions: CD-1, mouse, microsomes, pH 7.4, Ki, CYP3A (BROD), microsomes from low POPs-exposed mice; geometric mean (confidence interval)
ENDPOINT_NAME: Ki at 7 min (µM)
// units = µM; emit number, no label

[[record]]
compound = "O=C1C[C@@H](c2ccc(O)cc2)Oc2cc(O)cc(O)c21 [Naringenin, naringenin]"
unit_text = "µM"
data_value = 45.8


Prompt: Query (compound): O=c1c(O)c(-c2ccc(O)c(O)c2)oc2cc(O)cc(O)c12 [Quercetin, quercetin] ; field requested: Ki at 7 min
Response: 64.9

###

Biological target: CYP3A (CYP3A11) (Mus musculus, UniProt Q64459)
Assay: in vitro
Conditions: CD-1, mouse, microsomes, pH 7.4, IC50, CYP3A (BROD), microsomes from low POPs-exposed mice; geometric mean (confidence interval); 2 μM 7-benzyloxyresorufin
Procedure: Liver samples were taken immediately after necropsy, frozen in ethanol and dry ice, and stored at −80°C until use. The microsomal fractions were prepared using a calcium aggregation method. Microsomal protein concentration was determined with a commercially available kit (Bio-Rad laboratories Inc., Hercules, CA, USA) according to the manufacturer's instructions. […]
Each entry below carries its reported IC50 at 7 min.
// units = µM; emit number, no label

[[record]]
molecule = "O=C1C[C@@H](c2ccc(O)cc2)Oc2cc(O)cc(O)c21 [Naringenin, naringenin]"
data_value = 49.1


Please turn your attention to the following entry.
Prompt: Query (molecule): O=c1c(O)c(-c2ccc(O)c(O)c2)oc2cc(O)cc(O)c12 [Quercetin, quercetin] ; field requested: IC50 at 7 min
Response: 27.1
